Provide the reported α-rat koff of each item.
Biological target: T1, rat α-CGRP (Rattus norvegicus, UniProt P01256)
T1 construct: rat α (1-37); purchased GenScript Corporation or Global Peptide Services
T1 sequence (P01256 83-119 limits assumed): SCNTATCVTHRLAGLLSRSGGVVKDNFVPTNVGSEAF
Assay: Biacore SPR affinity of Fab fragments to N-biotinylated rat α-CGRP on SA chip
Format: binding
Settings: 37° C., screening mode except underlined values
Answer with a number only, understood to be in s⁻¹.

Prompt: Could you tell me which α-rat koff is on file for M79: G1 variant; L1 R28N T30S; L2 G50A L56T; H2 E54K A57P; HC-FW3 L99T A100V (antibody, V domains shown) VH: EVQLVESGGGLVQPGGSLRLSCAASGFTFSNYWISWVRQAPGKGLEWVAEIRSKSDPSATHYAEAVKGRFTISRDNAKNSLYLQMNSLRAEDTAVYYCTVYFDYGLAIQNYWGQGTLVTVSS VL: EIVLTQSPATLSLSPGERATLSCKASKNVSTYVSWYQQKPGQAPRLLIYAASNRYTGIPARFSGSGSGTDFTLTISSLEPEDFAVYYCSQSYNYPYTFGQGTKLEIK ?
Response: 0.19

Prompt: What do you get for M72: G1 variant; L1 R28N T30G; L2 L56S; H2 E54K; HC-FW3 L99T A100V (antibody, V domains shown) VH: EVQLVESGGGLVQPGGSLRLSCAASGFTFSNYWISWVRQAPGKGLEWVAEIRSKSDASATHYAEAVKGRFTISRDNAKNSLYLQMNSLRAEDTAVYYCTVYFDYGLAIQNYWGQGTLVTVSS VL: EIVLTQSPATLSLSPGERATLSCKASKNVGTYVSWYQQKPGQAPRLLIYGASNRYSGIPARFSGSGSGTDFTLTISSLEPEDFAVYYCSQSYNYPYTFGQGTKLEIK ?
Response: 0.00395

Prompt: What do you get for M80: G1 variant; L1 R28N T30S; L2 L561; H2 E54K A57N; S58V (printed in L1 column); HC-FW3 L99T A100V (antibody, V domains shown) VH: EVQLVESGGGLVQPGGSLRLSCAASGFTFSNYWISWVRQAPGKGLEWVAEIRSKSDNVATHYAEAVKGRFTISRDNAKNSLYLQMNSLRAEDTAVYYCTVYFDYGLAIQNYWGQGTLVTVSS VL: EIVLTQSPATLSLSPGERATLSCKASKNVSTYVSWYQQKPGQAPRLLIYGASNRYIGIPARFSGSGSGTDFTLTISSLEPEDFAVYYCSQSYNYPYTFGQGTKLEIK ?
Response: 0.0993

Prompt: What do you get for M56: G1 variant; L1 R28N T30D; L2 L56S; H2 E54K A57N H61F; HC-FW3 L99T A100V (antibody, V domains shown) VH: EVQLVESGGGLVQPGGSLRLSCAASGFTFSNYWISWVRQAPGKGLEWVAEIRSKSDNSATFYAEAVKGRFTISRDNAKNSLYLQMNSLRAEDTAVYYCTVYFDYGLAIQNYWGQGTLVTVSS VL: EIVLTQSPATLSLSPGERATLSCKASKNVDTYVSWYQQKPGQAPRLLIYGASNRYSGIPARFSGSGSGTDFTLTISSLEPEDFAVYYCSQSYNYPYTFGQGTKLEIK ?
Response: 0.00935
